Every entry's value here was drawn from ChEMBL document CHEMBL1156829.

Tested on: Plasmodium falciparum
Protocol description: NOVARTIS: Inhibition of Plasmodium falciparum 3D7 (drug-susceptible) proliferation in erythrocyte-based infection assay
Type: functional, organism-based
Stated conditions: Plasmodium falciparum, 3D7
pEC50: −log10 of the molar value.
Metric name: pEC50

1. COc1ccc(C)cc1Nc1nc(N)c2cc(OC)c(OC)cc2n1 : 6.01
2. Fc1ccccc1Nc1nc(NCc2ccccc2)c2ccccc2n1 : 6.33
3. CCCOC(=O)C1=C(C)NC2=C(C(=O)CC(c3ccc(Cl)cc3)C2)C1c1ccc(Cl)cc1 (stereo not given) : 6.53
4. CCN(CC)CCN(Cc1cc2cc(OC)ccc2[nH]c1=O)C(=S)Nc1ccc(F)cc1 : 5.68
5. Cc1cc(Cl)c(S(=O)(=O)N2CCCC2)cc1OCC(=O)NC1CCCCC1 : 7.02
6. O=C(Nc1ccc(C2=NCCN2)cc1)c1ccc(-c2ccc(C(=O)Nc3ccc(C4=NCCN4)cc3)cc2)cc1 : 5.88
7. COC(=O)[C@@H]1C[C@@H](NC(=O)c2ccc(OC)cc2OC)CN1Cc1ccc(C(F)(F)F)cc1 : 6.46
8. CCCCCc1ccc(C(=O)NCCCCNc2ccnc3cc(Cl)ccc23)cc1 : 6.41
9. COc1ccc(C=CC(=O)Nc2ccncc2)cc1OC : 6.45
10. COc1ccc(/C=C2/SC(=N)N(c3ccccc3OC)C2=O)cc1 : 6.46
11. CCOc1ccc(-n2cc(-c3ccccc3)c3c(SCc4cc(C)ccc4C)ncnc32)cc1 : 5.70

###

Test system: Plasmodium falciparum
Protocol description: NOVARTIS: Inhibition of Plasmodium falciparum 3D7 (drug-susceptible) proliferation in erythrocyte-based infection assay
Type: functional, organism-based
Stated conditions: Plasmodium falciparum, 3D7
Metric name: EC50 (nM)

1. COc1ccccc1CNC(=O)CCC1N=C2c3ccccc3N=C(SCC(=O)Nc3ccc(F)cc3)N2C1=O (stereo not given) : 5290
2. CCCCCC(=O)Oc1ccccc1-c1nc2ccccn2c1NC(C)(C)CC(C)(C)C : 701
3. CN(C)c1ccc(C=CC(=O)NC(=O)c2ccccc2O)cc1 : 118
4. COc1cc(OC)c(NC(=O)c2ccc(N3CC4CC(C3)c3cccc(=O)n3C4)c([N+](=O)[O-])c2)cc1Cl (stereo not given) : 9690
5. C=CCC(=O)NC1CCN(CC(O)CN(Cc2ccccc2)S(=O)(=O)c2ccccc2)C1 (stereo not given) : 257
6. COc1ccc(OC)c(C(=O)c2oc3ccccc3c2NC(=O)CCl)c1 : 10200
7. CC(C)CCN(CCC(C)C)CC(O)Cn1c2ccc(Br)cc2c2cc(Br)ccc21 (stereo not given) : 1490
8. CCOc1ccc(S(=O)(=O)N=C2C=C(Nc3ccc(O)cc3)C(=O)c3ccccc32)cc1 : 158
9. COc1cc(OC)nc(C(Sc2ccc(NC(=O)c3cccs3)cc2)c2ccccc2)n1 (stereo not given) : 175
10. Cc1c2c(cc3c1ccc1ccccc13)C[N+]1(CCCCC1)C2 : 1290
11. Cc1ccc(NC(=O)c2sc3nc4c(c(-c5cccs5)c3c2N)CCCC4)cc1 : 442
12. O=C(NCCCNC(=O)Nc1cccc(C2=NCCN2)c1)Nc1cccc(C2=NCCN2)c1 : 326
13. CCOC(=O)c1ccc2c(c1)[C@@H]1C=CC[C@@H]1[C@H](c1cccc(OC)c1OC)N2 : 471
14. O=C(NCCCCNc1ccnc2cc(Cl)ccc12)c1ccc([N+](=O)[O-])cc1 : 486

###

Recorded CC50 values for a group of molecules are listed next.
Protocol description: NOVARTIS: Cytotoxicity against human hepatocellular carcinoma cell line (Huh7)
Type: toxicity, cell-based, Huh-7
Stated conditions: Huh7 cells (hepatocellular carcinoma cell line)
Metric name: CC50

1) CCOC(=O)c1sc(=S)n(-c2ccc(N(C)C)cc2)c1N : > 10 µM
2) C=CC1CN2CCC1CC2C(OC(=O)C1CC1)c1ccnc2ccccc12 (stereo not given) : 42.2 µM
3) O=[N+]([O-])c1cc(C(F)(F)F)c(Cl)c([N+](=O)[O-])c1Nc1cc(C(F)(F)F)ccc1Cl : 6.13 µM
4) Oc1ccc(-c2cncc(NCc3ccc4c(c3)OCO4)c2)cc1 : > 10 µM
5) COc1cc2c(OC3OCC(OC)C(OC)C3O)c3c(c(-c4ccc5c(c4)OCO5)c2cc1OC)C(=O)OC3 (stereo not given) : > 10 µM
6) Cc1cc2nc(NC(=N)N)nc(C)c2cc1C : > 100 µM
7) CC(=O)N1CCc2cc(Br)cc(S(=O)(=O)N3CCCC(C)C3)c21 (stereo not given) : > 10 µM
8) O=C(Nc1ccc2c(c1)OCO2)c1cc2cc(C3(O)CCN(CC4CCCCC4)CC3)ccc2o1 : > 100 µM
9) COc1cc2ccccc2cc1C(=O)NCCOC12CC3CC(CC(C3)C1)C2 : > 100 µM
10) CCOC(=O)N1CCC(NC(=O)c2c(C)nn(-c3cccc(C)c3)c2-n2cccc2)CC1 : > 100 µM

###

Protocol description: NOVARTIS: Cytotoxicity against human hepatocellular carcinoma cell line (Huh7)
Format: toxicity, cell-based, Huh-7
Stated conditions: Huh7 cells (hepatocellular carcinoma cell line)
Metric name: CC50

1) COc1ccc(C2CC(=O)C3=C(C2)NC(C)=C(C(=O)OC2CCCC2)C3c2cccc(C)c2)cc1OC (configuration not stated) : 14.9 µM
2) CC(C(=O)N1CCN(C(c2ccccc2)c2ccccc2)CC1)N(CCN1CCOCC1)S(=O)(=O)c1ccccn1 (configuration not stated) : > 10 µM
3) CC(C)CN1CCN(c2nc(C#N)c3c(c2C(=S)NC2CCCCC2)CC(C)(C)OC3)CC1 : > 10 µM
4) COc1ccc2[nH]c(SCC(=O)Nc3cccc(NC(=O)CSc4nc5cc(OC)ccc5[nH]4)n3)nc2c1 : > 51 µM
5) COc1cc(OC)c(Br)c(-n2c(C(C)N(CCC(C)C)C(=O)c3ccccc3C)nc3ccccc3c2=O)c1 (configuration not stated) : > 10 µM
6) Cc1sc2nc(CN(C(=O)CCc3ccccc3)C3CCCCC3)[nH]c(=O)c2c1C : 1.94 µM
7) O=[N+]([O-])c1cccc(-c2ccc(C=NNc3nc4ccccc4[nH]3)o2)c1 : > 100 µM
8) c1ccc(CCNc2ncnc3c2[nH]c2ccccc23)cc1 : 15.6 µM
9) O=C(CN(CCN1CCOCC1)S(=O)(=O)c1ccccn1)N1CCN(C(c2ccccc2)c2ccccc2)CC1 : > 28.8 µM
10) Cc1ccc(NC(=O)c2sc3nc4c(c(-c5cccs5)c3c2N)CCCC4)cc1 : > 100 µM
11) CCOC(=O)c1c(CNc2ccncc2)n(C)c2cc(Br)c(O)cc12 : > 10 µM
12) COc1ccc(CN(Cc2cc3cccc(C)c3[nH]c2=O)C(=S)NC2CCCCC2)cc1 : > 10 µM
13) Cc1cc(N2CCC(N(C)C3CCCC3)CC2)nc2cc(O)ccc12 : 25.5 µM
14) O=C1CSC(=S)N1c1cccc(Cl)c1 : > 100 µM
15) CCOC(=O)c1cnc2c(OC)cccc2c1Nc1cccc(C(F)(F)F)c1 : 26 µM
16) O=C(NC1CCN(Cc2ccccc2)CC1)[C@@H](c1ccccc1)N1Cc2ccccc2C1=O : > 100 µM
17) COc1cc(OC)cc(C(=O)NCc2n[nH]c(=S)n2-c2ccc(Br)cc2)c1 : > 100 µM
18) O=C(Nc1ccc(-c2nc3cc(-c4nc5ccccc5o4)ccc3[nH]2)cc1)c1ccc([N+](=O)[O-])cc1 : > 10 µM
19) CC(=O)OC1C(NC(=O)c2cc([N+](=O)[O-])c(N(C)C)c([N+](=O)[O-])c2)OC(C(=O)N2CCOCC2)C(OC(C)=O)C1OC(C)=O (configuration not stated) : > 10 µM
20) CC(C)C1=Nc2cc(C(N)=O)ccc2CN1C1CC1 : > 10 µM
21) COc1cccc(OC)c1C(=O)Nc1cc(C(F)(F)F)ccc1Cl : > 10 µM
22) CCC(=O)c1c(C)n(-c2ccc(Br)cc2)c2ccc(O)cc12 : > 10 µM
23) C=CCCC(=O)N1CCC(C(=O)Nc2ccc(-c3nc4ccccc4o3)cc2)CC1 : > 100 µM
24) Clc1cccc(-c2cn3ccnc3c(N3CCN(c4ccncc4)CC3)n2)c1 : > 10 µM
25) CCCN(CCC)CCNC(=O)c1cc2c(-c3ccc(Cl)cc3)nn(C)c2s1 : 45.8 µM
26) O=C(NCc1ccccc1)c1cccc2c(Br)cccc12 : > 10 µM
27) C=CC1CN2CCC1CC2C(O)c1ccnc2ccccc12 (configuration not stated) : > 100 µM
28) Cc1cc(N2CCN(C)CC2)nc2ccc(NC(=O)Nc3ccccc3Cl)cc12 : > 100 µM
29) CN(C)/C=C1\Oc2ccccc2N=C1Cl : > 10 µM
30) CCOc1ccc(Nc2cc(C)nc(Nc3ccc(OCC)cc3)n2)cc1 : 9.85 µM
31) CSc1ccc(/C=C/C(=O)NC(=O)c2ccccc2O)cc1 : > 10 µM
32) N#Cc1cccc(/C=C/C(=O)O)c1 : > 10 µM
33) CN(Cc1cc(-c2ccccc2)ccc1O)CC(O)c1ccccc1 (configuration not stated) : > 10 µM
34) CCN1/C(=C/c2ccc3cc(OC)ccc3[n+]2CC)Sc2cc(C)ccc21 : 19.2 µM
35) N#CC(=Cc1ccccc1OCc1ccc(Cl)cc1Cl)c1nc2ccccc2[nH]1 : 5.05 µM
36) CCOC(=O)c1cnc2c(C)cc(C)cc2c1Nc1ccc(OC)c(OC)c1 : > 100 µM
37) COc1cccc(NC(=O)C2C3C=CC4(O3)C2C(=O)N(Cc2ccc3c(c2)OCO3)C4C(=O)NC2CCCCC2C)c1 (configuration not stated) : > 100 µM
38) Cc1cc(C)c(C(Nc2ccccn2)c2ccc3cccnc3c2O)c(C)c1 (configuration not stated) : > 67.9 µM
39) O=C(Nc1cccc(-c2nc3ccccc3[nH]2)c1)c1cc(=O)c2ccccc2o1 : > 100 µM
40) CCCNCC(O)COc1ccccc1C(=O)CCc1ccccc1 (configuration not stated) : 28.9 µM
41) COc1cccc(Nc2nc(NCCO)c3ccccc3n2)c1 : 21.1 µM
42) O=C(Cn1ccc(=NCc2ccccc2)cc1)c1ccc(I)cc1 : 20.8 µM
